Assignment: determine reported IC50 for the given compounds.
# System: KB cell
# ASSAY_NOTES: KB cell cytotoxicity
# EXPERIMENTAL_SETUP: read-out: KB cell cytotoxicity (IC50)

Problem: Need IC50 of CC[C@H](C)[C@H](N)C(=O)OC[C@H]1O[C@@H](n2cnc3c(N)ncnc32)[C@@H](O)[C@@H]1O , thanks.
Result: > 100 µM

Problem: Thanks! And NCC(=O)OC[C@H]1O[C@@H](n2cnc3c(N)ncnc32)[C@@H](O)[C@@H]1O ?
Result: > 100 µM

Problem: Next record, please: Nc1ncnc2c1ncn2[C@@H]1O[C@H](COC(=O)[C@@H](N)CC(=O)O)[C@@H](O)[C@@H]1O
Result: 60 µM

Problem: // repeat for CC[C@@H](C)[C@@H](N)C(=O)OC[C@H]1O[C@@H](n2cnc3c(N)ncnc32)[C@@H](O)[C@@H]1O and report
Result: > 100 µM

Problem: One more compound: CC(C)[C@H](N)C(=O)OC[C@H]1O[C@@H](n2cnc3c(N)ncnc32)[C@@H](O)[C@@H]1O
Result: 65 µM

Problem: Would you kindly repeat that for CC(C)[C@@H](N)C(=O)OC[C@H]1O[C@@H](n2cnc3c(N)ncnc32)[C@@H](O)[C@@H]1O ?
Result: > 100 µM
